Reference source: paper PMC3691235

Listed below: inhibition at 10 µM values for each entry.
# Test system: LTB4 synthesis in whole human blood
# protocol.notes: Human blood LTB4 inhibition assay
# Format: cell-based
# measurement.setup: Homo sapiens, compounds at 10 µM, calcium ionophore stimulated, ELISA; error in parentheses
# Protocol: Whole human blood was obtained from healthy volunteers from within the Student Health Center. These studies were approved by the UCSC Institutional Review Board (IRB) and informed consent was obtained from all donors before blood draw. The whole blood was dispensed in 150 µL samples followed by addition of inhibitor or control (vehicle, DMSO), and incubated for 15 min at 37°C. […]
Give a bare numeral; the unit % is implied.

Below: 3 compounds and their reported inhibition at 10 µM.
compound | unit.of.measure | inhibition at 10 µM
CC[C@](O)(c1nnc(NCc2ccc3c(-c4ccc(F)cc4)cc(=O)oc3c2)o1)C(F)(F)F [setileuton, reference compound] | % | 100
CC(=O)N1CCN(c2ccc(OCC3COC(Cn4ccnc4)(c4ccc(Cl)cc4Cl)O3)cc2)CC1 (stereo not shown) [ketoconazole, reference compound] | % | 25
CC(=O)N1CCN(c2ccc(NCC3COC(Cn4ccnc4)(c4ccc(Cl)cc4Cl)O3)cc2)CC1 (stereo not shown) | % | 45

Here is another compound to look at.
**Query** Quick check: inhibition at 10 µM on LTB4 synthesis in whole human blood, item Cc1cc(C2CCCCC2)n(O)c(=O)c1 [ciclopirox, reference compound] ?
**Result** 34

----------
Listing of entries alongside the reported pKd.
# test.target: Homo sapiens CYP51 (HsCYP51) (Homo sapiens)
# Construct: made in house; host or cells: E. coli
# Sequence (Q16850 whole entry): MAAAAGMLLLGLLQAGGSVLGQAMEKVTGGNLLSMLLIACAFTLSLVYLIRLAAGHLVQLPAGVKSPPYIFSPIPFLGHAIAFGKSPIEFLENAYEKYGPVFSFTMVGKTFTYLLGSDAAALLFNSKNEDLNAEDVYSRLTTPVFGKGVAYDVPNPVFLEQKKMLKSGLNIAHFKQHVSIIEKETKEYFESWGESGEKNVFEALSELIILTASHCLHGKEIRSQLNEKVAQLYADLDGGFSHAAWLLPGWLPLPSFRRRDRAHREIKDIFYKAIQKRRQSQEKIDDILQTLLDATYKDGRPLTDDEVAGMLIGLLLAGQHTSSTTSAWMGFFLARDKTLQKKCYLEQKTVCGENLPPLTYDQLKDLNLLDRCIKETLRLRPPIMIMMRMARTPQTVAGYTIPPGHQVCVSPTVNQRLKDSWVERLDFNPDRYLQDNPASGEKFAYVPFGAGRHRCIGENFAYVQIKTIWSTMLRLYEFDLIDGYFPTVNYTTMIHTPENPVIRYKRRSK
# protocol.notes: Azole binding to HsCYP51 (type II difference spectra titration)
# measurement.setup: 5 µM HsCYP51, Morrison equation
FYI, pKd means -log10 of a concentration in mol per litre.

molecule | pKd
CC(=O)N1CCN(c2ccc(OCC3COC(Cn4ccnc4)(c4ccc(Cl)cc4Cl)O3)cc2)CC1 (centres unmarked) [ketoconazole, reference compound] | 7.38

Alright, here's another molecule for you.
**Query** I have this molecule here, CC(=O)N1CCN(c2ccc(NCC3COC(Cn4ccnc4)(c4ccc(Cl)cc4Cl)O3)cc2)CC1 (centres unmarked) [ketaminazole (16), ketaminazole] , and I need its recorded pKd.
**Result** 6.14

----------
# test.target: Human leukocyte 5-lipoxygenase (Homo sapiens, UniProt P09917)
# Construct: made in house
# Sequence (P09917 whole entry): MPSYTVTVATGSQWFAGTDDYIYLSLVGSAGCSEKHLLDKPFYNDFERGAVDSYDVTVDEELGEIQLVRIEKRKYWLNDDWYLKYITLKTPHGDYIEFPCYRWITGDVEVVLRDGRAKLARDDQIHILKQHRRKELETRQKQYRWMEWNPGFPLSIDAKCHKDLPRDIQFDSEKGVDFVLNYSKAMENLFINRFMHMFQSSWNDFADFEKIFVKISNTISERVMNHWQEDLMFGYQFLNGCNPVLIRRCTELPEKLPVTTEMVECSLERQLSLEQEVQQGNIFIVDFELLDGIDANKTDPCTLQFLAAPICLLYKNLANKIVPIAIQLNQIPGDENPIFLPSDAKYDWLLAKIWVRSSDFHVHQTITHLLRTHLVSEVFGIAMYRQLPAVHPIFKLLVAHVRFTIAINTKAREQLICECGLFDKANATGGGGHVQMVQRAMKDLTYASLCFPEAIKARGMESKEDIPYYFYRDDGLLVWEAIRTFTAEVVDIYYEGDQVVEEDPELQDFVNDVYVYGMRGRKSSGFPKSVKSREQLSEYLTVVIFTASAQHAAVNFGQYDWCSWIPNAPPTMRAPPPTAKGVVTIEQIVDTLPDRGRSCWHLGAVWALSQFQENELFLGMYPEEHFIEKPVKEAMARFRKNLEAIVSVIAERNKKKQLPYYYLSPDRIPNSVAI
# protocol.notes: Lipoxygenase UV-based inhibitor assay, 5-LOX
# Format: biochemical
# measurement.setup: UV-based assay, 10 µM AA, pH 7.3, crude enzyme; error = SD; read-out: 5-LOX IC50
measurement.label: IC50 (nM)
Answer format: numeric, nM implied, no suffix.

Here are 4 compounds together with their reported answers.
compound | measurement.label | quantitative.readout
CC(C)(C)OC(=O)N1CCN(c2ccc(NCc3cnc(-c4ccc(C#N)cc4)o3)cc2)CC1 [Compound 8] | IC50 | 100
Cc1cc(C2CCCCC2)n(O)c(=O)c1 [ciclopirox, reference compound] | IC50 | 11000
CC(C)(C)OC(=O)N1CCN(c2ccc(NCc3ncc(-c4ccc(C#N)cc4)o3)cc2)CC1 [Compound 9] | IC50 | 1500
CC(C)(C)OC(=O)N1CCN(c2ccc(NCc3ccc(-c4ccc(C#N)cc4)o3)cc2)CC1 [Compound 1] | IC50 | 170

**Query** So what's the measured IC50 for this one? CN(Cc1ccc(-c2ccc(C#N)cc2)o1)c1ccc(N2CCN(C(=O)OC(C)(C)C)CC2)cc1 [Compound 7]
**Result** 2700

**Query** Look up IC50: CC(=O)N1CCN(c2ccc(NCc3ccc(C)cc3)cc2)CC1 [Compound 11]
**Result** 1100

**Query** Fill blank: measured IC50 of the compound CC(=O)N1CCN(c2ccc(NCc3ccc(-c4cccc(Cl)c4)o3)cc2)CC1 [Compound 13] is ____.
**Result** 520
